Molecular target: Full-length glucokinase (beta cell isoform) (Homo sapiens)
Construct: Full-length glucokinase (beta cell isoform) was His-tagged at N-terminus; His tag (N); made in house; host or cells: E. coli BL21(DE3), pBCGK vector
Sequence (P35557 whole entry, canonical isoform): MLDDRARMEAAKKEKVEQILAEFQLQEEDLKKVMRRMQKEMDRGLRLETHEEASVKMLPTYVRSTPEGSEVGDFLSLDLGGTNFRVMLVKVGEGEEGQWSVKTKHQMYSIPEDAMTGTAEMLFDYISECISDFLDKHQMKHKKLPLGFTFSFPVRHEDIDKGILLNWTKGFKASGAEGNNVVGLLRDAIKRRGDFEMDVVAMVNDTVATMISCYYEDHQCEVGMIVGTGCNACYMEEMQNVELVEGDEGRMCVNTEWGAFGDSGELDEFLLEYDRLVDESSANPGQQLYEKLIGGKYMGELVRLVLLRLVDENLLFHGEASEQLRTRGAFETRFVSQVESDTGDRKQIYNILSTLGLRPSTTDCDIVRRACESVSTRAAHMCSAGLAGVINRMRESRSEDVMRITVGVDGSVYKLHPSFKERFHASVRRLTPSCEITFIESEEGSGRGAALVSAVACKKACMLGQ
Experiment: Glucokinase activation assay (PK/LDH-coupled, NADH depletion at 340 nm)
Assay type: biochemical
Settings: 5 mM glucose, 2.5 mM ATP, pH 7.1, room temperature; single value or range where N>1; read-out: EC50
Each entry below lists one item and its recorded EC50 value.
outcome.measure: EC50

- given.smiles: "O=C(Nc1ccc(CP(=O)(O)O)cn1)[C@H](CC1CCCC1)n1cnc(C(F)(F)F)c1"
  result: "4.6 µM"
- given.smiles: "CC(C)S(=O)(=O)c1cnn([C@@H](CC2CCCC2)C(=O)Nc2ccc(C(F)(F)F)cn2)c1"
  result: "0.7 to 1.9 µM"
- given.smiles: "Cc1ccc(NC(=O)[C@H](CC2CCCC2)n2cc(C)c(C(F)(F)F)n2)nc1"
  result: "4 to 5.4 µM"
